Target: T1, VEGF(8-109) (human, UniProt P15692)
T1 chain: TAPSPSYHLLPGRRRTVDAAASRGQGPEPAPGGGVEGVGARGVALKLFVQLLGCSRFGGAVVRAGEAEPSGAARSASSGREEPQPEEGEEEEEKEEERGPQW
Assay: SPR, 25C
property_label: Kd

>>> test_result("Y0313-2 (antibody, V domains shown) VH: EVQLVESGGGLVQPGGSLRLSCAASGYDFTHYGMNWVRQAPGKGLEWVGWINTYTGEPTYAADFKRRFTFSLDTSKSTAYLQMNSLRAEDTAVYYCAKYPHYYVNERKSHWYFDVWGQGTL VL: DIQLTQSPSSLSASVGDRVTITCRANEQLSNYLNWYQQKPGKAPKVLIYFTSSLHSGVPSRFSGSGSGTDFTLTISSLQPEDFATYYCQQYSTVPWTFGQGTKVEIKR")
"0.36 nM"
>>> test_result("Y0239-19 (antibody, V domains shown) VH: EVQLVESGGGLVQPGGSLRLSCAASGYTFTNYGMNWVRQAPGKGLEWVGWINTYTGEPTYAADFKRRFTFSLDTSKSTAYLQMNSLRAEDTAVYYCAKYPHYYVNERKSHWYFDVWGQGTL VL: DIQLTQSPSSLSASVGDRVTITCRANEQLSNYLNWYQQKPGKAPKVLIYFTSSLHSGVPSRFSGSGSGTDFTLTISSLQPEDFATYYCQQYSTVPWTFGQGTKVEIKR")
"0.3 nM"
>>> test_result("Y0242-1 (antibody, V domains shown) VH: EVQLVESGGGLVQPGGSLRLSCAASGYTFTNYGMNWVRQAPGKGLEWVGWINTWTGEPTYAADFKRRFTFSLDTSKSTAYLQMNSLRAEDTAVYYCAKYPHYYGSSHWYFDVWGQGTL VL: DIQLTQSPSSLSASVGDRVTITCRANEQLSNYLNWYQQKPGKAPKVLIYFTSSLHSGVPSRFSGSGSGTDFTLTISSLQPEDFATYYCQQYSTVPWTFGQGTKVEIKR")
"1.8 nM"
